Each item that follows carries a reported half-life.
# Test Protocol: stability against a mouse kidney homogenate
# Assay type: in vitro ADME
# Measurement Context: 0.05M phosphate buffer (pH 6.9), 30° C., test compound solution 1 mg/ml mixed 1:1, read-out: Half life (T1/2)

| Molecule | Parameter | Experimental Result |
| --- | --- | --- |
| CC(=O)NCCSC1=C(C(=O)O)N2C(=O)C(C(O)CS(=O)(=O)c3ccccc3)C2C1 (stereo not drawn) | half-life | > 2 h |
| CC(=O)NCCSC1=C(C(=O)O)N2C(=O)[C@@H](C3(O)CCS(=O)(=O)C3)[C@H]2C1 (stereo partly drawn) | half-life | > 2 h |
| O=C(O)C1=C(Sc2ncccn2)C[C@@H]2[C@H](C3(O)CCS(=O)(=O)C3)C(=O)N12 (stereo partly drawn) | half-life | > 2 h |
| CCS(=O)(=O)CC(O)C1C(=O)N2C(C(=O)O)=C(SCCNC(C)=O)CC12 (stereo not drawn) | half-life | > 2 h |
| CC(=O)N/C=C/SC1=C(C(=O)O)N2C(=O)[C@@H](C3(O)CCS(=O)(=O)C3)[C@H]2C1 (stereo partly drawn) | half-life | > 2 h |

Tell me measured half-life for CC(=O)NCCSC1=C(C(=O)O)N2C(=O)[C@@H](C(O)CS(C)(=O)=O)[C@H]2C1 (stereo partly drawn) please.
> 2 h
